measurementNotes: Aqueous solubility at pH >= […]
Assay type: physicochemical
assayContext: buffer
observedProperty: solubility

Which solubility reading was recorded for the compound COc1cncc(-c2cc(NC(C)=O)nc(-n3nc(C)cc3C)n2)c1 ?
< 0.01 mg/mL

----------
Provide the reported CLint scaled of each item.
measurementNotes: Metabolic stability in human liver microsomes assessed as intrinsic clearance by LC-MS/MS analysis
Format: ADME, Microsome
One number for each entry, in mL/min/kg.

[[record]]
chemicalstring = "CC(=O)Nc1cc(-c2cccc(N(C)C)n2)nc(-n2nc(C)cc2C)n1"
observedproperty = "CLint scaled"
observedmeasurement = 54

[[record]]
chemicalstring = "CC(=O)Nc1cc(-c2cccc(N3CCOCC3)n2)nc(-n2nc(C)cc2C)n1"
observedproperty = "CLint scaled"
observedmeasurement = 3


Let us examine a further case.
Looking for the measured CLint scaled of COc1cncc(-c2cc(NC(=O)CN3CCOCC3)nc(-n3nc(C)cc3C)n2)c1 , can you help?
3

----------
Observed Ki, system UniProt:P30542.
Numbers only, in nM.

[[record]]
chemicalstring = "CC(=O)Nc1cc(-c2ccnc(N3CCOCC3)c2)nc(-n2nc(C)cc2C)n1"
unitannotation = "nM"
observedmeasurement = 580

[[record]]
chemicalstring = "CC(=O)Nc1cc(-c2cccc(N3CCOCC3)n2)nc(-n2nc(C)cc2C)n1"
unitannotation = "nM"
observedmeasurement = 130

[[record]]
chemicalstring = "CC(=O)Nc1cc(-c2cccc(N3CCN(C)CC3)n2)nc(-n2nc(C)cc2C)n1"
unitannotation = "nM"
observedmeasurement = 120

[[record]]
chemicalstring = "CC(=O)Nc1cc(-c2cncc(N3CCOCC3)c2)nc(-n2nc(C)cc2C)n1"
unitannotation = "nM"
observedmeasurement = 220

[[record]]
chemicalstring = "CC(=O)Nc1cc(-c2cccnc2)nc(-n2nc(C)cc2C)n1"
unitannotation = "nM"
observedmeasurement = 2100


List the reported Ki of each compound below.
1. COC1CN(c2cccc(-c3cc(NC(C)=O)nc(-n4nc(C)cc4C)n3)n2)C1
2. COC(=O)Nc1cc(-c2cncc(OC)c2)nc(-n2nc(C)cc2C)n1

1: 34; 2: 780

For every item in the list below, what is its measured Ki?
1. CC(=O)Nc1cc(-c2ccncc2)nc(-n2nc(C)cc2C)n1
2. COC1CCN(c2cccc(-c3cc(NC(C)=O)nc(-n4nc(C)cc4C)n3)n2)CC1
3. COc1cc(OC)cc(-c2cc(NC(C)=O)nc(-n3nc(C)cc3C)n2)c1
4. CC(=O)Nc1cc(-c2cccc(N3CCCC3)n2)nc(-n2nc(C)cc2C)n1

820
85
22
7.2

List Ki for every entry below, keeping the order given.
1. CCC(=O)Nc1cc(-c2cncc(OC)c2)nc(-n2nc(C)cc2C)n1
2. COc1cncc(-c2cc(NC(C)=O)nc(-n3nc(C)cc3C)n2)c1

1. 70
2. 190

----------
System: Rattus norvegicus
measurementNotes: Inhibition of haloperidol-induced catalepsy in rat at 30 mg/kg, po after 2 hrs
Type: functional
Activity calls are given as the source filed them. The rule behind the calls is not given here.
observedProperty: Activity

[[record]]
chemicalstring = "COc1cncc(-c2cc(NC(=O)CN3CCOCC3)nc(-n3nc(C)cc3C)n2)c1"
observedmeasurement = "inactive"

[[record]]
chemicalstring = "CCOC(=O)Nc1cc(-c2cncc(OC)c2)nc(-n2nc(C)cc2C)n1"
observedmeasurement = "inactive"

[[record]]
chemicalstring = "COc1cccc(-c2cc(NC(C)=O)nc(-n3nc(C)cc3C)n2)c1F"
observedmeasurement = "inactive"

[[record]]
chemicalstring = "CC(=O)Nc1cc(-c2cncc(O)c2)nc(-n2nc(C)cc2C)n1"
observedmeasurement = "inactive"


Look up Activity for this compound: CC(=O)Nc1cc(-c2cccc(N3CCN(C)CC3)n2)nc(-n2nc(C)cc2C)n1
inactive

----------
Answer each item with its documented pKi.
Sequence of the target: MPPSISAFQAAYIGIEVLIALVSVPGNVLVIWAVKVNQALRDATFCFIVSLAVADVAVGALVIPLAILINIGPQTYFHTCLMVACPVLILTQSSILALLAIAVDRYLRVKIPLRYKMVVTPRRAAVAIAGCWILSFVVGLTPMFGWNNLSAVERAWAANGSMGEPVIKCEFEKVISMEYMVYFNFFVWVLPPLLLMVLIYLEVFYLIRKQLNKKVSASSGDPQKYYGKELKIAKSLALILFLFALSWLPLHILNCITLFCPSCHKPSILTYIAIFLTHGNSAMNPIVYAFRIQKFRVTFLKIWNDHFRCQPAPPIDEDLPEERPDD
Answers are plain numbers, as −log10 of the molar value.

Recorded results for 2 compounds are shown here.
[[record]]
chemicalstring = "CC(=O)Nc1cc(-c2cccc(N3CCCCC3)n2)nc(-n2nc(C)cc2C)n1"
observedproperty = "pKi"
observedmeasurement = 7.51

[[record]]
chemicalstring = "COc1cccc(-c2cc(NC(C)=O)nc(-n3nc(C)cc3C)n2)c1F"
observedproperty = "pKi"
observedmeasurement = 6.96


Hi team, please reply with pKi for each item in this list.
1. COc1cncc(-c2cc(NC(=O)CN3CCOCC3)nc(-n3nc(C)cc3C)n2)c1
2. CC(=O)Nc1cc(-c2cccc(N)n2)nc(-n2nc(C)cc2C)n1
3. CC(=O)Nc1cc(-c2cccc(N(C)C)n2)nc(-n2nc(C)cc2C)n1

6.03
6.36
7.09

----------
measurementNotes: AUC (0 to 24 hrs) in rat plasma at 10 mg/kg, po
Format: ADME, organism-based
Set-up: time < 24 hr, dose 10 mg/kg, route oral
observedProperty: AUC(0-t) at 24 h (ng·h/mL)
Answers are plain numbers, in ng·h/mL.

I would be grateful if you could share the reported AUC(0-t) at 24 h for COc1cncc(-c2cc(NC(C)=O)nc(-n3nc(C)cc3C)n2)c1 .
1430

----------
Measured pKi (Adenosine receptor A2a (Homo sapiens, UniProt P29274))
One number for each entry, as −log10 of the molar value.

[[record]]
chemicalstring = "CCOC(=O)Nc1cc(-c2cncc(OC)c2)nc(-n2nc(C)cc2C)n1"
observedmeasurement = 8.11

[[record]]
chemicalstring = "COC1CCN(c2cccc(-c3cc(NC(C)=O)nc(-n4nc(C)cc4C)n3)n2)CC1"
observedmeasurement = 9.36

[[record]]
chemicalstring = "CC(=O)Nc1cc(-c2cccc(N3CCCCC3)n2)nc(-n2nc(C)cc2C)n1"
observedmeasurement = 9.25

[[record]]
chemicalstring = "CC(=O)Nc1cc(-c2cccc(N3CCN(C)CC3)n2)nc(-n2nc(C)cc2C)n1"
observedmeasurement = 9.15

[[record]]
chemicalstring = "CC(=O)Nc1cc(-c2cccc(N3CCOCC3)n2)nc(-n2nc(C)cc2C)n1"
observedmeasurement = 9.08

[[record]]
chemicalstring = "CC(=O)Nc1cc(-c2cncc(N3CCOCC3)c2)nc(-n2nc(C)cc2C)n1"
observedmeasurement = 8.52

[[record]]
chemicalstring = "CCC(=O)Nc1cc(-c2cncc(OC)c2)nc(-n2nc(C)cc2C)n1"
observedmeasurement = 8.74

[[record]]
chemicalstring = "COc1cc(OC)cc(-c2cc(NC(C)=O)nc(-n3nc(C)cc3C)n2)c1"
observedmeasurement = 9.72

[[record]]
chemicalstring = "CC(=O)Nc1cc(-c2cccc(N3CCCC3)n2)nc(-n2nc(C)cc2C)n1"
observedmeasurement = 9.59


Field: next compound
Which pKi value belongs to CC(=O)Nc1cc(-c2cccc(N(C)C)n2)nc(-n2nc(C)cc2C)n1 ?
9.21
